Target: T1, TRAIL (TNFSF10) ectodomain (UniProt P50591 39-281, limits assumed)
T1 construct: extracellular domain; also called endogenous TRAIL; TRAIL ectodomain
T1 sequence (P50591 39-281 limits assumed): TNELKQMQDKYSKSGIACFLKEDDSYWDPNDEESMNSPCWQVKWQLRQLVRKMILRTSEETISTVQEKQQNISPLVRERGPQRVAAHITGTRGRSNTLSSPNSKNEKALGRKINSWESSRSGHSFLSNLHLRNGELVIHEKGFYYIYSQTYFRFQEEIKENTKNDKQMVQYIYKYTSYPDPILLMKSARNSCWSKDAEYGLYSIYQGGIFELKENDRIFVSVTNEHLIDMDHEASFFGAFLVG
Experiment: SPR, mutant TRAIL-R2-Fc captured, TRAIL as analyte
measuredProperty: koff (s⁻¹)
Your answer is read as s⁻¹, so omit the unit and give the number.

Please review the following examples before continuing.
binder | dataValue
TRAIL-R2-Fc D148A (Fc fusion, human, not shown: a dimerising Fc or GST, range 58-184) QQDLAPQQRAAPQQKRSSPSEGLCPPGHHISEDGRDCISCKYGQDYSTHWNDLLFCLRCTRCDSGEVELSPCTTTRNTVCQCEEGTFREEASPEMCRKCRTGCPRGMVKVGDCTPWSDIECVHKESGLVPRGS | 3.58e-05
TRAIL-R2-Fc V167A (Fc fusion, human, not shown: a dimerising Fc or GST, range 58-184) QQDLAPQQRAAPQQKRSSPSEGLCPPGHHISEDGRDCISCKYGQDYSTHWNDLLFCLRCTRCDSGEVELSPCTTTRNTVCQCEEGTFREEDSPEMCRKCRTGCPRGMVKAGDCTPWSDIECVHKESGLVPRGS | 9.57e-06
TRAIL-R2-Fc P150A (Fc fusion, human, not shown: a dimerising Fc or GST, range 58-184) QQDLAPQQRAAPQQKRSSPSEGLCPPGHHISEDGRDCISCKYGQDYSTHWNDLLFCLRCTRCDSGEVELSPCTTTRNTVCQCEEGTFREEDSAEMCRKCRTGCPRGMVKVGDCTPWSDIECVHKESGLVPRGS | 9.02e-06

-- ask Which koff reading was recorded for the binder TRAIL-R2-Fc F112A (Fc fusion, human, not shown: a dimerising Fc or GST, range 58-184) QQDLAPQQRAAPQQKRSSPSEGLCPPGHHISEDGRDCISCKYGQDYSTHWNDLLACLRCTRCDSGEVELSPCTTTRNTVCQCEEGTFREEDSPEMCRKCRTGCPRGMVKVGDCTPWSDIECVHKESGLVPRGS ?
-- reply 9.86e-06
